- Test system: TDF;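 further: TDF denotes transformed human dermal fibroblasts of mesenchymal origin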
- Experimental details: cell number relative to DMSO (% of DMSO); higher = more cells (less growth inhibition / toxicity)
- Cond: concentration: 10 µM; 24 h
Think of 100 as a floor: if cell number stands on it or above, it is Criterion met; beneath it, Criterion not met.

compound="CC(C)CC(NC(=O)C(COC(C)(C)C)NC(=O)C(Cc1ccc(O)cc1)NC(=O)C(CO)NC(=O)C(Cc1c[nH]c2ccccc12)NC(=O)C(Cc1cnc[nH]1)NC(=O)C1CCC(=O)N1)C(=O)NC(CCCN=C(N)N)C(=O)N1CCCC1C(=O)NNC(N)=O (configuration not stated)" label_value="Criterion met"
compound=O=C(Nc1ccccc1)c1cc([N+](=O)[O-])ccc1Cl label_value="Criterion not met"
compound="CCCCCC=CCC=CCC=CCC1OC1CCCC(=O)O (configuration not stated)" label_value="Criterion met"
compound="Cc1ccc(C(=CCN2CCCC2)c2ccccn2)cc1.Cl [Triprolidine hydrochloride]" label_value="Criterion met"

Exercise: Given the entry O=C(O)Cc1c[nH]c2ccc(O)cc12 [(5-hydroxy-3H-indol-3-yl)acetic acid] , answer whether its cell number meets or surpasses 100.
Solution: Criterion not met

Exercise: Could you verify whether the entry O=C1C(=O)C(c2ccc(O)c(O)c2)Oc2cc(O)cc(O)c21 (configuration not stated) [2-(3,4-dihydroxyphenyl)-3,5,7-trihydroxy-4H-chromen-4-one] shows cell number of no less than 100?
Solution: Criterion not met
